Origin of measurements: the supplement of paper PMC8671470

System: KG-1
assay-details: cell viability (% survival relative to DMSO control, bortezomib = 0%); higher = less cytotoxic
assay-setup: 10000 nM; 72 h
observed-property: cell viability (%)
One number for each entry, in %.

Examples with answers:
CCC(CC#N)OC(=O)N[C@@H](C)c1cccc(NC(=O)Nc2ccc(-c3cnco3)c(OC)c2)c1 (stereo in doubt) [AVN-944] = 20.2
OC[C@H]1OC(O)C[C@@H](O)[C@@H]1O (some centres not stated) [2-deoxyglucose] = 92.9
Cc1nc(-c2ccc(OCC(C)C)c(C#N)c2)sc1C(=O)O [Febuxostat] = 90.4
O=C(Oc1cccc(F)c1OC(=O)c1cccc(O)c1)c1cccc(O)c1 [WZB117] = 30.7

Required: cell viability, one value per compound below.
1. Fc1ccc(CNc2ncnc3ccc(F)cc23)cc1 [Spautin 1]
2. Cl.OC[C@H]1NC[C@H](O)[C@@H](O)[C@H]1O [Migalastat]
3. CC(=O)N[C@@H](CS)C(=O)O [Acetylcysteine]
4. CNC(=C[N+](=O)[O-])NCCSCc1ccc(CN(C)C)o1 [Ranitidine]
5. CCCCCCCCCCCCCCOc1ccc(C(=O)O)o1 [TOFA]
6. CN(C)C(=N)NC(=N)N [Metformin]
7. CCCCC/C=C\C/C=C\C/C=C\C/C=C\CCCC(=O)C(F)(F)F [Arachidonyl trifluoromethyl ketone]

1: 32.6; 2: 96.3; 3: 101; 4: 163; 5: 93.2; 6: 96.3; 7: 47.7

Required: cell viability, one value per compound below.
1. COc1ccc2c(c1)c(CC(=O)O)c(C)n2C(=O)c1ccc(Cl)cc1 [Indomethacine]
2. N=C(N)c1ccc(N=NNc2ccc(C(=N)N)cc2)cc1 [Diminazene]
3. C#CCN[C@@H]1CCc2ccccc21 [Rasagiline]
4. C[C@H]1O[C@H](O[C@H]2[C@H](O)[C@@H](O)[C@@H](O[C@H]3[C@H](O)[C@@H](O)C(O)O[C@@H]3CO)O[C@@H]2CO)[C@H](O)[C@@H](O)[C@@H]1N[C@H]1C=C(CO)[C@@H](O)[C@H](O)[C@H]1O (mixture of isomers) [Acarbose]
5. COc1cc(C2Oc3cc(C4Oc5cc(O)cc(O)c5C(=O)C4O)ccc3OC2CO)ccc1O (configuration not stated) [Silibinin]
6. NC(CCC(=O)NC(CSCc1ccc(Br)cc1)C(=O)NCC(=O)OC1CCCC1)C(=O)OC1CCCC1 (configuration not stated) [S-para-Bromobenzylglutathione cyclopentyl diester]

[97.6, 88.9, 114, 95.7, 93.8, 105]

* * *

Test system: myeloid leukemia patient primary cells Pat.4
assay-details: cell viability (% survival relative to DMSO control); higher = less cytotoxic
assay-setup: 100 nM; 72 h
Lab note: anything with cell viability below 90% is marked y; values at 90% or higher are marked n.

Recorded results for 4 molecules are shown here.
NS(=O)(=O)c1ccc(S(=O)(=O)Nc2cccc3c(Cl)c[nH]c23)cc1 = y
O=C(Oc1cccc(F)c1OC(=O)c1cccc(O)c1)c1cccc(O)c1 = y
CC(C)c1onc(-c2c(Cl)cccc2Cl)c1COc1ccc(/C=C/c2cccc(C(=O)O)c2)c(Cl)c1 = n
CCC(CC#N)OC(=O)N[C@@H](C)c1cccc(NC(=O)Nc2ccc(-c3cnco3)c(OC)c2)c1 (stereo in doubt) = n

Now consider the entry below.
Determine whether this molecule shows cell viability lower than 90% (ties excluded): `O=C(Cc1cccc(OC(F)(F)F)c1)Nc1ccc(CCCCc2nnc(NC(=O)Cc3ccccn3)s2)nn1` y

* * *

Please go through the items and note down their cell viability.
Tested on: myeloid leukemia patient primary cells Pat.11
assay-details: cell viability (% survival relative to DMSO control); higher = less cytotoxic
assay-setup: 10 nM; 72 h
Answers are plain numbers, in %.

O=C(CCl)N(CCCNC(=O)C(F)(F)F)c1ccc([N+](=O)[O-])cc1 = 97
Cc1nnc(-c2ccc(N3CCC(Oc4ccccc4C(F)(F)F)CC3)nn2)s1 = 96.6
C=C1NC(=O)c2cc(CN(C)c3ccc(C(=O)N[C@@H](CCC(=O)O)C(=O)O)s3)ccc2N1 = 97.3
CCC(CC#N)OC(=O)N[C@@H](C)c1cccc(NC(=O)Nc2ccc(-c3cnco3)c(OC)c2)c1 (stereo in doubt) = 99.4

Lab note: next compound to report on.
Please state recorded cell viability (tested on myeloid leukemia patient primary cells Pat.11) of `Nc1ccn([C@@H]2O[C@H](CO)[C@@H](O)C2(F)F)c(=O)n1` 91.6

* * *

Tested on: myeloid leukemia patient primary cells Pat.6
assay-details: area under dose-response curve (viability, 1 nM-10 uM) (fraction (0-1)); higher = more sensitive
assay-setup: 72 h
Please go through the items and note down their area under dose-response curve.

Examples with answers:
C=C1NC(=O)c2cc(CN(C)c3ccc(C(=O)N[C@@H](CCC(=O)O)C(=O)O)s3)ccc2N1 [Raltitrexed] = < 0.0301
Fc1ccc(CNc2ncnc3ccc(F)cc23)cc1 [Spautin 1] = 0.0755
Oc1ncc(F)c(O)n1 [5-fluorouracil] = < 0.0301
O=C(Cc1cccc(OC(F)(F)F)c1)Nc1ccc(CCCCc2nnc(NC(=O)Cc3ccccn3)s2)nn1 [CB-839] = < 0.0301
CN(C)CCNC(=O)c1cccn2c(=O)c3cc4ccccc4cc3nc12 [Bmh-21] = 0.199
Clc1cc(Cl)c(OCC#CI)cc1Cl [Haloprogin] = 0.238

Required: area under dose-response curve, one value per compound below.
1. CCn1c(=O)/c(=C2\Sc3ccccc3N2C)s/c1=C\c1cccc[n+]1CC.[Cl-] [MKT-077]
2. Cc1nnc(-c2ccc(N3CCC(Oc4ccccc4C(F)(F)F)CC3)nn2)s1 [MF-438]
3. O=C(CCl)N(CCCNC(=O)C(F)(F)F)c1ccc([N+](=O)[O-])cc1 [ML-175]

1. 0.0306
2. < 0.0301
3. 0.204

* * *

Please go through the items and note down their cell viability.
Test system: KG-1
assay-details: cell viability (% survival relative to DMSO control, bortezomib = 0%); higher = less cytotoxic
assay-setup: 1000 nM; 72 h
Answers are plain numbers, in %.

O=C(/C=C/c1cccnc1)NCCCCC1CCN(C(=O)c2ccccc2)CC1 = 8.29
Fc1ccc(CNc2ncnc3ccc(F)cc23)cc1 = 66.8
CNC(=C[N+](=O)[O-])NCCSCc1ccc(CN(C)C)o1 = 174
O=C(CCl)N(CCCNC(=O)C(F)(F)F)c1ccc([N+](=O)[O-])cc1 = 6.67
CCCCCCCCCCCCCCOc1ccc(C(=O)O)o1 = 97.5

Required: cell viability, one value per molecule below.
1. O=C(Oc1ccc([N+](=O)[O-])cc1)N1CCC(C(O)(c2ccc3c(c2)OCO3)c2ccc3c(c2)OCO3)CC1
2. COc1cc(C2Oc3cc(C4Oc5cc(O)cc(O)c5C(=O)C4O)ccc3OC2CO)ccc1O (configuration not stated)
3. CN(C)C(=N)NC(=N)N
4. CC(=O)N1CCN(c2ccc(OC[C@@H]3CO[C@@](Cn4ccnc4)(c4ccc(Cl)cc4Cl)O3)cc2)CC1 (racemic)

[104, 94.3, 100, 93.7]

Required: cell viability, one value per molecule below.
1. CN(C)C(=O)n1nnnc1Cc1ccc(-c2ccccc2)cc1
2. CC1Cc2ccccc2N1NC(=O)c1ccc(Cl)c(S(N)(=O)=O)c1 (configuration not stated) [Indapamide]
3. C[C@H]1O[C@H](O[C@H]2[C@H](O)[C@@H](O)[C@@H](O[C@H]3[C@H](O)[C@@H](O)C(O)O[C@@H]3CO)O[C@@H]2CO)[C@H](O)[C@@H](O)[C@@H]1N[C@H]1C=C(CO)[C@@H](O)[C@H](O)[C@H]1O (mixture of isomers)
4. OCCN1C[C@H](O)[C@@H](O)[C@H](O)[C@H]1CO

1: 60.6; 2: 97.3; 3: 105; 4: 94.7

Required: cell viability, one value per molecule below.
1. C#CCN[C@@H]1CCc2ccccc21
2. Cl.NC1=CCCN1Cc1nc(O)nc(O)c1Cl
3. COc1cc(/C=C/c2ccc(OC)cc2OC)cc(OC)c1

1: 89.8; 2: 107; 3: 101

Please state recorded cell viability (tested on KG-1) of `O=C(C(=O)c1ccc(Br)cc1)c1ccc(Br)cc1` 100

* * *

Test system: KG-1
assay-details: cell viability (% survival relative to DMSO control, bortezomib = 0%); higher = less cytotoxic
assay-setup: 100 nM; 72 h
Where a name gives a salt, the structure may show the parent alone.
observed-property: cell viability (%)
Give bare numbers, in %.

Examples with answers:
Oc1ncc(F)c(O)n1 [5-fluorouracil] = 85.8
NS(=O)(=O)c1ccc(S(=O)(=O)Nc2cccc3c(Cl)c[nH]c23)cc1 [Indisulam] = 173
NC(CCC(=O)NC(CSCc1ccc(Br)cc1)C(=O)NCC(=O)OC1CCCC1)C(=O)OC1CCCC1 (configuration not stated) [S-para-Bromobenzylglutathione cyclopentyl diester] = 49.9
Nc1nc(O)c2c(CCc3ccc(C(=O)N[C@@H](CCC(=O)O)C(=O)O)cc3)c[nH]c2n1 [Pemetrexed] = 91.6
CC(C)(Cc1ccccc1)NCC(O)c1ccc(O)c(NS(C)(=O)=O)c1 (configuration not stated) [Zinterol hydrochloride] = 99.6
CC(=O)N[C@@H](CS)C(=O)O [Acetylcysteine] = 101

Required: cell viability, one value per compound below.
1. C#CCN[C@@H]1CCc2ccccc21 [Rasagiline]
2. Cl.NC1=CCCN1Cc1nc(O)nc(O)c1Cl [Tipiracil]
3. C=C1C(=O)O[C@H](CCCCCCCC)[C@H]1C(=O)O [C75]
4. C=C1NC(=O)c2cc(CN(C)c3ccc(C(=O)N[C@@H](CCC(=O)O)C(=O)O)s3)ccc2N1 [Raltitrexed]
5. Cn1c2cc(S(C)=O)sc2c2cnn(Cc3cccc(N)c3)c(=O)c21 (configuration not stated) [TEPP-46]

[98.5, 111, 112, 101, 102]
